These measurements were taken from PubChem BioAssay (NCATS).

- EXPERIMENT NOTES: Primary qHTS for inhibitors of nuclear receptor binding SET domain protein 2 (NSD2) in an RCH-ACV wild type WT cells (2C) (AID 1645877); also: % is scaled to controls: 0 for no effect and ±100 for the full control effect; nearly all actives have a fitted effect of over 70% in size
- CONDITIONS USED: RCH-ACV (leukaemia line) NSD2 WT (2C) viability, CellTiter-Glo, 72 h; series mostly up to 44.9 µM
Inconclusive results are not listed. The source made the active and inactive calls. Calls follow the shape of the dose curve; as a rule, active = well fitted inhibition curve with a large enough effect; inconclusive = small, poorly fitted or top-dose-only effect; inactive = no such curve, though single readings can be large or run the other way.
OBSERVATION TYPE: activity change, negative = cell killing

Here's what some known entries look like.
CCC(=O)NS(=O)(=O)c1ccc(-c2c(-c3ccccc3)noc2C)cc1 : inactive
C[C@H]1[C@H](C)CC[C@]2(C(=O)O[C@@H]3O[C@H](CO)[C@@H](O)[C@H](O)[C@H]3O)CC[C@]3(C(=O)O)C(=CCC4[C@@]5(C)CC[C@H](O[C@@H]6O[C@H](CO)[C@@H](O)[C@H](O)[C@H]6O)C(C)(C)C5CC[C@]43C)[C@H]12 (stereo partly specified) : -8.94% [at 9.23 µM] (inactive)
COC(=O)[C@@]1(C)CC[C@]2(C(=O)O[C@@H]3O[C@H](CO)[C@@H](O)[C@H](O)[C@H]3O)CC[C@]3(C)C(=CCC4[C@@]5(C)CC[C@H](O[C@@H]6O[C@H](C(=O)O)[C@@H](O)[C@H](O)[C@H]6O)C(C)(C)C5CC[C@]43C)[C@@H]2C1 (stereo partly specified) : -26.4% [at 9.23 µM] (inactive)
CC1CCC2C(C)(C)C(O)CCC2(C)C12Cc1c(O)cc3c(c1O2)CN(C(CCC(N)=O)C(=O)O)C3=O (stereo unspecified) : inactive
CC1(C)NC2N(C1=O)c1ccccc1C2(O)CC(C(=O)O)n1cnc2ccccc2c1=O (stereo unspecified) : inactive

Next item in the queue.
activity change, negative = cell killing for "NC(=O)[C@H]1CCCCc2c1[nH]c1ccc(Cl)cc21" is inactive

====

- Tested on: CP211
- EXPERIMENT NOTES: qHTS profiling for inhibitors of Plasmodium falciparum proliferation (AID 504749); also: nearly all actives have a fitted effect of over 60% in size
- CONDITIONS USED: P. falciparum in erythrocytes, SYBR Green DNA, 72 h; series mostly up to 28.7 µM
Inconclusive results are not listed. Calls of active or inactive are those of the source. Calls follow the shape of the dose curve; as a rule, active = well fitted inhibition curve with a large enough effect; inconclusive = small, poorly fitted or top-dose-only effect; inactive = flat fitted curve, though single readings scatter.
Pick from active, inactive when you respond.

Answered examples (2):
CC1=C(/C=C/C(C)=C/C=C/C(C)=C/C=C/C=C(C)/C=C/C=C(C)/C=C/C2=C(C)C(=O)CCC2(C)C)C(C)(C)CCC1=O : inactive
O=C(Nc1cccc(C(F)(F)F)c1)c1cc(Br)cc(Br)c1O : active

Read the next record carefully.
Ask: How was "CCN(CC)Cc1cc(Nc2ccnc3cc(Cl)ccc23)ccc1O" classified in this test?
Reply: active

====

- System: HaCat
- EXPERIMENT NOTES: Cytotoxic Profiling of Annotated Libraries Using Quantitative High-Throughput Screening (AID 1296008); also: nearly all actives have a fitted effect of over 60% in size
- CONDITIONS USED: Five cell lines viability, CellTiter-Glo ATP luminescence, 48-72 h
Results filed as inconclusive are left out. Calls of active or inactive are those of the source. Calls follow the shape of the dose curve; as a rule, active = well fitted inhibition curve with a large enough effect; inconclusive = small, poorly fitted or top-dose-only effect; inactive = flat fitted curve, though single readings scatter.
OBSERVATION TYPE: Potency

CC1(CO)CC2C(O)C(=O)C3(CO)CC3(C)C2C1 (centres undefined) : inactive
CCOC(=O)[C@H]1O[C@@H]1C(=O)N[C@@H](CC(C)C)C(=O)NCCC(C)C : inactive
COc1cc([C@H]2OC[C@@H]3[C@@H](c4ccc(O[C@@H]5O[C@H](CO)[C@@H](O)[C@H](O)[C@H]5O)c(OC)c4)OC[C@]23O)ccc1O : inactive
C=CC(C)(C)O[C@@H]1O[C@H](CO[C@@H]2OC[C@](O)(CO)[C@H]2O)[C@@H](O)[C@H](O)[C@H]1O : inactive
Cc1[nH]cnc1C1CCN(c2nc3cccc4c3n2CCC4=O)CC1 : inactive

GET /value?item= "C1CCN2CC3C[C@@H](CN4CCCC[C@@H]34)[C@H]2C1" &field=Potency returns inactive

Entry under test: COc1ccc(/C=C/C(=O)O[C@@H]2[C@@H](O)[C@H](C)O[C@@H](OC3C4C=COC(O[C@@H]5O[C@H](CO)[C@@H](O)[C@H](O)[C@H]5O)C4C4(CO)OC34)[C@@H]2O)cc1OC (some centres undefined) . Its Potency was inactive

The molecule listed as "COc1ccc2c(c1O)OC[C@H]1c3ccc(O)cc3O[C@@H]21" has a reported Potency of inactive

According to the records, this molecule "CC(=O)OC[C@@]12[C@H](O)C[C@@H](C)[C@]3(C[C@@H](c4ccoc4)OC3=O)[C@H]1C[C@H](O)C[C@]21CO1" displays Potency of inactive

Please fill in: Potency reported for "C(#Cc1cccc(CN2CCOCC2)c1)CCN1CCCCC1" = inactive

Record "CC(C)c1nc(N(C)S(C)(=O)=O)nc(-c2ccc(F)cc2)c1/C=C/[C@@H](O)C[C@@H](O)CC(=O)O" , field Potency: inactive

The molecule listed as "C[C@@H]1C[C@H](O[C@@H]2O[C@H](CO[C@@H]3OC[C@](O)(CO)[C@H]3O)[C@@H](O)[C@H](O)[C@H]2O)CC(C)(C)[C@H]1/C=C/[C@@H](C)O" shows Potency equal to inactive

Potency measured on "C[C@H]1C[C@H]2[C@@H]3CCC4=CC(=O)C=C[C@]4(C)[C@@]3(F)[C@@H](O)C[C@]2(C)[C@@]1(O)C(=O)COP(=O)(O)O" = inactive

Note to self: Potency recorded for "CC(C)c1ccc(CC(=O)N2CCC[C@@H](c3cccc(OC(C)(C)C(=O)O)c3)C2)cc1" was inactive
